Where these numbers come from: patent US20100081679A1

The entries below come with measured logP values attached.
assay: logP determination via retention times, calibrated with unbranched alkan-2-ones; assay type: physicochemical; conditions: HPLC on reversed-phase C18 column (EEC Directive 79/831 Annex V.A8); method *: 40° C.; 0.1% aqueous formic acid and acetonitrile; linear gradient 10% to 95% acetonitrile
Marks after values point to notes of the source that are not given here.
parameter measured: logP

given_smiles=CCC(=O)c1ccc(Nc2ncc(Cl)c(NC3CC3)n2)cc1 endpoint_value=2.34*
given_smiles=COc1cc(Nc2ncc(Cl)c(NC3CC3)n2)ccc1Cl endpoint_value=2.53*
given_smiles=CC(C)Sc1cccc(Nc2ncc(Cl)c(NC3CC3)n2)c1 endpoint_value=3.18*
given_smiles=CSc1cccc(Nc2ncc(C(F)(F)F)c(NC3CC3)n2)c1 endpoint_value=3.29*;
given_smiles=COCc1cccc(Nc2ncc(Cl)c(NC3CC3)n2)c1 endpoint_value=1.67*
given_smiles=CS(=O)(=O)c1cccc(Nc2ncc(Br)c(NC3CC3)n2)c1 endpoint_value=1.76*
given_smiles=COc1cccc(Nc2ncc(C(F)(F)F)c(NCC3CC3)n2)c1 endpoint_value=2.91*
given_smiles=CS(=O)(=O)Nc1cccc(Nc2ncc(Cl)c(NC3CC3)n2)c1 endpoint_value=1.47*
given_smiles=CN1C(=O)COc2cc(Nc3ncc(Cl)c(NC4CC4)n3)ccc21 endpoint_value=1.47*
given_smiles=N#CCC(=O)c1ccc(Nc2ncc(Cl)c(NC3CC3)n2)cc1 endpoint_value=2.09*
given_smiles=Cc1cc(Nc2ncc(Cl)c(NC3CC3)n2)ccc1O endpoint_value=1.09*
given_smiles=CS(=O)(=O)c1ccc(Nc2ncc(C(F)(F)F)c(NCC3CC3)n2)cc1 endpoint_value=2.63*
given_smiles=CCC(=O)c1cc(Nc2ncc(Cl)c(NC3CC3)n2)ccc1O endpoint_value=1.99*
given_smiles=CC(C)(C)C(=O)Nc1cccc(Nc2ncc(C(F)(F)F)c(NCC3CC3)n2)c1 endpoint_value=2.77*
given_smiles=CCOC(=O)Cc1ccc(Nc2ncc(Cl)c(NC3CC3)n2)cc1 endpoint_value=1.99*
given_smiles=FC(F)C(F)(F)Oc1cccc(Nc2ncc(Cl)c(NC3CC3)n2)c1 endpoint_value=3.03*
given_smiles=CC(=O)Nc1cccc(Nc2ncc(C(F)(F)F)c(NCC3CC3)n2)c1 endpoint_value=1.9*
given_smiles=Clc1cnc(Nc2ccc(NC3CC3)nc2)nc1NC1CC1 endpoint_value=0.92*
given_smiles=CN(C)S(=O)(=O)c1cccc(Nc2ncc(Br)c(NCC3CC3)n2)c1 endpoint_value=2.48*
given_smiles=COCc1cccc(Nc2ncc(Br)c(NC3CC3)n2)c1 endpoint_value=1.8*
given_smiles=COc1ccc(Nc2ncc(Br)c(NCC3CC3)n2)cn1 endpoint_value=1.63*
given_smiles=CC(C)(C)NC(=O)c1ccc(Nc2ncc(C(F)(F)F)c(NCC3CC3)n2)cc1 endpoint_value=3.07*
given_smiles=CC(C)(C)C(=O)Nc1ccc(Nc2ncc(C(F)(F)F)c(NCC3CC3)n2)cc1 endpoint_value=2.6*

====

Here, each record is paired with measured logP data.
assay: logP determination via retention times, calibrated with unbranched alkan-2-ones; format: physicochemical; conditions: method **: HPLC, reversed-phase C 18, 43° C., mobile phase 0.1% aqueous phosphoric acid and acetonitrile, linear gradient from 10% to 95% acetonitrile
parameter measured: logP

given_smiles=COc1ccc(CN(c2nc(Nc3ccccc3)ncc2Cl)C2CC2)cc1 parameter_measured=logP endpoint_value=4.15**
given_smiles=COc1ccc(CN(c2nc(Nc3cccc(N4CCCC4=O)c3)ncc2Cl)C2CC2)cc1 parameter_measured=logP endpoint_value=3.37**
given_smiles=Clc1cnc(Nc2cccc(Cn3ccnc3)c2)nc1NC1CC1 parameter_measured=logP endpoint_value=0.83**

====

test: logP determination via retention times, calibrated with unbranched alkan-2-ones; assay type: physicochemical; conditions: HPLC on reversed-phase C18, method *: 40° C., 0.1% aqueous formic acid and acetonitrile, linear gradient 10% to 95% acetonitrile
Marks after values point to notes of the source that are not given here.
# reported logP; entries follow
parameter measured: logP

compound=FC(F)(F)Oc1ccccc1Nc1ncc(Cl)c(NC2CC2)n1 parameter_measured=logP endpoint_value=3.07*
compound=CC(=O)c1cc(Nc2ncc(Cl)c(NC3CC3)n2)ccc1O parameter_measured=logP endpoint_value=1.65*
compound=C=CC(=O)Nc1cccc(Nc2ncc(Br)c(NC3CC3)n2)c1 parameter_measured=logP endpoint_value=1.54*
compound=FC(F)(F)c1cccc(Nc2ncc(Cl)c(NC3CC3)n2)c1 parameter_measured=logP endpoint_value=3.03*
compound=N#Cc1cccc(Nc2ncc(Cl)c(NCC3CC3)n2)c1 parameter_measured=logP endpoint_value=2.26*
compound=Fc1ccc(F)c(Nc2ncc(Cl)c(NC3CC3)n2)c1 parameter_measured=logP endpoint_value=2.91*
compound=N#Cc1cccc(Nc2ncc(Br)c(NC3CC3)n2)c1 parameter_measured=logP endpoint_value=2.26*
compound=Clc1cnc(Nc2ccccc2Br)nc1NC1CC1 parameter_measured=logP endpoint_value=2.7*
compound=Cc1cc(Cl)c(Br)cc1Nc1ncc(Cl)c(NC2CC2)n1 parameter_measured=logP endpoint_value=3.46*
compound=COC(=O)Nc1ccc(Nc2ncc(Cl)c(NCC3CC3)n2)cc1 parameter_measured=logP endpoint_value=1.44*
compound=O=C(Nc1ccccc1)Nc1ccc(Nc2ncc(Cl)c(NC3CC3)n2)cc1 parameter_measured=logP endpoint_value=1.75*
compound=Clc1cc(Nc2ncc(Cl)c(NC3CC3)n2)ccc1Br parameter_measured=logP endpoint_value=3.63*
compound="CCC(C)c1ccccc1Nc1ncc(Cl)c(NC2CC2)n1 (stereo not drawn)" parameter_measured=logP endpoint_value=2.11*
compound="CC[S+]([O-])c1cccc(Nc2ncc(Br)c(NC3CC3)n2)c1 (racemic)" parameter_measured=logP endpoint_value=1.59*
compound=O=C(c1ccc(Nc2ncc(C(F)(F)F)c(NCC3CC3)n2)cc1)N1CCCCC1 parameter_measured=logP endpoint_value=3.04*

====

assay: logP determination via retention times, calibrated with unbranched alkan-2-ones; type: physicochemical; settings: method *: HPLC, reversed-phase C 18, 40° C., mobile phase 0.1% aqueous formic acid and acetonitrile, linear gradient from 10% to 95% acetonitrile
parameter measured: logP

compound="CCSCc1cccc(Nc2ncc(Cl)c(NC3CC3)n2)c1 [compound 986]" endpoint_value=2.55*
compound="Clc1cnc(Nc2ccc(Sc3ccccc3)cc2)nc1NC1CC1 [compound 1013]" endpoint_value=3.69*
compound="Cc1cccc(Nc2ncc(Cl)c(NCC3CC3)n2)c1 [compound 1051]" endpoint_value=2.09*
compound="CCCCSc1cccc(Nc2ncc(Cl)c(NC3CC3)n2)c1 [compound 1054]" endpoint_value=3.78*
compound="COC(=O)c1cc(Nc2ncc(Cl)c(NC3CC3)n2)cc(C(=O)OC)c1 [compound 1001]" endpoint_value=2.46*
compound="Fc1ccc(Nc2ncc(Cl)c(NC3CC3)n2)cc1OC(F)F [compound 1053]" endpoint_value=2.62*
compound="COC(=O)c1cc(Nc2ncc(Cl)c(NC3CC3)n2)ccc1O [compound 993]" endpoint_value=1.81*
compound="Brc1cnc(Nc2ccccc2)nc1NC1CC1 [compound 1069]" endpoint_value=2.65*

====

In this section we review reported logP values for a set of compounds.
experiment: logP determination via retention times, calibrated with unbranched alkan-2-ones; type: physicochemical; conditions: HPLC on reversed-phase C 18, EEC Directive 79/831 Annex V.A8; method *: 40° C., 0.1% aqueous formic acid and acetonitrile, linear gradient 10% to 95% acetonitrile
Marks after values point to notes of the source that are not given here.
parameter measured: logP

compound=COc1cc(Nc2ncc(Br)c(NC3CC3)n2)cc(OC)c1 endpoint_value=2.15*
compound=CC(C)(C)NC(=O)Cc1cccc(Nc2ncc(Cl)c(NC3CC3)n2)c1 endpoint_value=1.81*
compound=CC(=O)Nc1ccc(Nc2ncc(Br)c(NCC3CC3)n2)cn1 endpoint_value=1.47*
compound=Oc1ccc(Nc2ncc(Br)c(NCC3CC3)n2)c(F)c1 endpoint_value=1.51*
compound=CCOC(=O)Cc1ccc(Nc2ncc(Br)c(NCC3CC3)n2)cc1 endpoint_value=2.18*
compound=CC(C)(CF)C(=O)Nc1cccc(Nc2ncc(Br)c(NCC3CC3)n2)c1 endpoint_value=1.99*
compound=Clc1cnc(Nc2cccc(N3CCCCC3)c2)nc1NC1CC1 endpoint_value=1.45*
compound="CC1CC(C)CN(c2cccc(Nc3ncc(Br)c(NC4CC4)n3)c2)C1 (centres unmarked)" endpoint_value=2.63*
compound=CC(C)C(=O)Nc1ccc(Nc2ncc(Cl)c(NCC3CC3)n2)cc1 endpoint_value=1.73*
compound=CC(=O)c1cc(Nc2ncc(Cl)c(NCC3CC3)n2)ccc1Cl endpoint_value=2.51*
compound=O=C1CCCN1c1cc(Nc2ncc(Cl)c(NC3CC3)n2)ccc1F endpoint_value=1.53*

====

assay: logP determination via retention times, calibrated with unbranched alkan-2-ones; type: physicochemical; settings: HPLC on reversed-phase C18, method *: 40° C.; mobile phase 0.1% aqueous formic acid and acetonitrile; linear gradient 10% to 95% acetonitrile
Marks after values point to notes of the source that are not given here.
parameter measured: logP

given_smiles=CC(C)(C)C(=O)Cc1ccc(Nc2ncc(Br)c(NC3CC3)n2)cc1 endpoint_value=2.39*
given_smiles=Cc1cc(C)cc(Nc2ncc(Cl)c(NC3CC3)n2)c1 endpoint_value=2.13*
given_smiles=O=S(=O)(c1cccc(Nc2ncc(Br)c(NC3CC3)n2)c1)N1CCCCC1 endpoint_value=2.16*
given_smiles=Clc1cccc(Nc2ncc(Cl)c(NC3(c4ccccc4Cl)CC3)n2)c1 endpoint_value=5.18*
given_smiles=CC1(c2ccc(Nc3ncc(Cl)c(NC4CC4)n3)cc2)CCCC1 endpoint_value=3.42*
given_smiles=CC(C)(C)C(=O)Nc1cccc(Nc2ncc(Cl)c(NCC3CC3)n2)c1 endpoint_value=2.14*
given_smiles=COc1ccc(Nc2ncc(Cl)c(NC3CC3)n2)cc1OC endpoint_value=1.47*
given_smiles=Clc1cnc(Nc2ccc(-c3cscn3)cc2)nc1NC1CC1 endpoint_value=1.9*
given_smiles=COc1cccc(Nc2ncc(Br)c(NC3CC3)n2)c1 endpoint_value=1.9*
given_smiles=CC(C)c1cccc(Nc2ncc(Br)c(NC3CC3)n2)c1 endpoint_value=2.8*
given_smiles=Clc1cnc(Nc2cccc(-c3nccs3)c2)nc1NC1CC1 endpoint_value=2.21*
given_smiles=Clc1ccccc1C1(Nc2nc(Nc3ccccc3)ncc2Cl)CC1 endpoint_value=3.66*
given_smiles=CCN(C(=O)OC)c1ccc(Nc2ncc(Br)c(NC3CC3)n2)cc1 endpoint_value=2.06*
given_smiles=Clc1ccc(Nc2ncc(Cl)c(NC3CC3)n2)cc1 endpoint_value=2.54*
